# ASSAY_SYSTEM: T1, human glucagon receptor (human, UniProt P47871 26-477)
# T1 construct: whole, on cells; Used as crude membranes of stably transfected HEK293 cells; also called hGcgR; hGLcgR
# T1 sequence (P47871 26-477): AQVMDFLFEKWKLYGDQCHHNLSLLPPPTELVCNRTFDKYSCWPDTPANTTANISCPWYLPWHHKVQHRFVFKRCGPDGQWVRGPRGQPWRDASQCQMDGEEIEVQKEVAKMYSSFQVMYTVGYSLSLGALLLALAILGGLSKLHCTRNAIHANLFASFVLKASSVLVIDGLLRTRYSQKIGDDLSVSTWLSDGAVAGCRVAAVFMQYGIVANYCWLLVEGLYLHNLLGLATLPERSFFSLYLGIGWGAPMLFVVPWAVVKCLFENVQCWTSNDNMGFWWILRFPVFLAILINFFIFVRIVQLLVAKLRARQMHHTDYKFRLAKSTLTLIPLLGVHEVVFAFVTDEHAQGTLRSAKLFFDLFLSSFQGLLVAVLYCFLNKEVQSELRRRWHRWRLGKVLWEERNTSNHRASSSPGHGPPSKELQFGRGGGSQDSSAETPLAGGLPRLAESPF
# TEST_NAME: SPA, [125I]-Gcg displacement, hGcgR membranes
// values below are reported Ki
Provide only the numeric value, understood in nM.

Worked examples, 3 binders total:
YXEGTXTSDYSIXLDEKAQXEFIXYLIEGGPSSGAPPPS (Aib2; αMeF(2F)6; αMeL13; K17((2-[2-(2-Amino-ethoxy)-ethoxy]-acetyl)2-(γ-Glu)-CO-(CH2)18-CO2H); Aib20; Aib24; C-terminal NH2) [Example 152]	93.4
YXEGTXTSDYSIXLDEKAQXEFIVYLIEGGPSSGAPPPS (Aib2; αMeF(2F)6; αMeL13; K17((2-[2-(2-Amino-ethoxy)-ethoxy]-acetyl)2-(γ-Glu)-CO-(CH2)18-CO2H); Aib20; C-terminal NH2) [Example 149]	127
YXEGTXTSDYSIXLDKKAQXSFIEYLIEGGPSSGAPPPS (Aib2; αMeF6; αMeL13; K17((2-[2-(2-Amino-ethoxy)-ethoxy]-acetyl)2-(γ-Glu)-CO-(CH2)18-CO2H); Aib20; C-terminal NH2) [Example 138]	61.2

YXEGTXTSDYSIXLDEKAQXEFIEYLIEGG (Aib2; αMeF(2F)6; αMeL13; K17((2-[2-(2-Amino-ethoxy)-ethoxy]-acetyl)2-(γ-Glu)-CO-(CH2)16-CO2H); Aib20; C-terminal NH2) [Example 104] has a reported Ki of 123

YXEGTFTSDYSIXLDKKAQXAXIEYLIEGGPSSGAPPPS (Aib2; αMeL13; K17((2-[2-(2-Amino-ethoxy)-ethoxy]-acetyl)2-(γ-Glu)-CO-(CH2)18-CO2H); Aib20; αMeF22; C-terminal NH2) [Example 74] has a reported Ki of 69.8
